Target: 5-HT3 receptor (Cavia porcellus, UniProt O70212)
Construct: from tissue; host or cells: guinea pig isolated ileum (terminal 15 cm)
Assay: 5HT3-antagonist activity: inhibition of 5-HT-induced contractions of isolated guinea pig ileum in the presence of methysergide
Type: cell-based
Conditions: guinea pig ileum; methysergide 10^-6 M; 37° C.; 20 min incubation with antagonist; 5-HT contact time 30 sec; dose ratio at 100% maximal Ach response; read-out: A2 (concentration of the antagonist giving a dose ratio of 2) (converted)
Where a name gives a salt, the structure may show the parent alone.
Each entry below carries its reported Kb.
QUANTITY KIND: Kb (nM)

INSERT INTO results (compound, quantitative_result) VALUES
  ('CN1[C@@H]2CCC[C@H]1C[C@@H](NC(=O)Nc1ccccc1-c1nc(C3CC3)no1)C2 [Example 8, HCl]', 3.41),
  ('CON=Cc1ccccc1NC(=O)N[C@H]1C[C@H]2CCC[C@@H](C1)N2C', 36.3),
  ('CN1[C@@H]2CC[C@H]1C[C@@H](NC(=O)Nc1ccccc1-c1nc(C3CC3)no1)C2 [Example 5, HCl]', 43.5),
  ('CCCCc1noc(-c2ccccc2NC(=O)N[C@H]2C[C@H]3CC[C@@H](C2)N3C)n1', 13);

###

Each entry below carries its reported Kb.
Molecular target: 5-HT3 receptor (Cavia porcellus, UniProt O70212)
Construct: from tissue; host or cells: guinea pig isolated ileum (terminal 15 cm)
Sequence (O70212 20-490): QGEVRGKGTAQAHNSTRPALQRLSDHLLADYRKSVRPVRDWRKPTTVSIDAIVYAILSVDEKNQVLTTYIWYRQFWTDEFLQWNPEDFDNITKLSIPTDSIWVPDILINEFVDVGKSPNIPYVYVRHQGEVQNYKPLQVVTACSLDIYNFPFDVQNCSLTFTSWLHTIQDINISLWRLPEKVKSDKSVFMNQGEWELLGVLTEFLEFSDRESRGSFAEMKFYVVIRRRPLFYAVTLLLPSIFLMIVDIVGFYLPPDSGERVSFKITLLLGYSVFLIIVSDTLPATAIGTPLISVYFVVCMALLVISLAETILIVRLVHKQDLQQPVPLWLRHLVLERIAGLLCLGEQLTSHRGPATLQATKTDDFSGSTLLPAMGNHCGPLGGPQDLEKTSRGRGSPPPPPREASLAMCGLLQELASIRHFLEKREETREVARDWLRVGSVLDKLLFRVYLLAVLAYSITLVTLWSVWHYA
Assay: 5HT3-antagonist activity: inhibition of 5-HT-induced contractions of isolated guinea pig ileum in the presence of methysergide
Format: cell-based
Conditions: guinea pig ileum; methysergide 10^-6 M; 37° C.; 20 min incubation with antagonist; 5-HT contact time 30 sec; dose ratio at 100% maximal Ach response; read-out: A2 (concentration of the antagonist giving a dose ratio of 2) (converted)
Structures can show the parent of a compound that is named as a salt.
QUANTITY KIND: Kb (nM)

INSERT INTO assay_data (compound, quantitative_result) VALUES
  ('CN1[C@@H]2CC[C@H]1C[C@@H](NC(=O)Nc1ccccc1C=NOCC1CC1)C2 [Example 15, HCl]', 5.05),
  ('CN1[C@@H]2CCC[C@H]1C[C@@H](NC(=O)Nc1ccccc1-c1nc(-c3ccccc3)no1)C2', 24),
  ('CCON=Cc1ccccc1NC(=O)N[C@H]1C[C@H]2CC[C@@H](C1)N2C [Example 16, HCl]', 36.3),
  ('Cc1noc(-c2ccccc2NC(=O)N[C@H]2C[C@H]3CC[C@@H](C2)N3C)n1 [Example 6, HCl]', 293);
